Hello, the source for this data is the nanobody polyreactivity screen of Harvey et al. (2022), in case you need it.

assay: yeast display, Sf9 membrane polyspecificity reagent, FACS + sequencing; frameworks hold sequencing errors
experimental_readout: polyreactivity (PSR sort gate)

See these solved cases before continuing.
QVQLVESGGGLVQAGGSLRLSCAASGSIFQFYAMGWYRQAPGKERELVAVITTSGVSTYYADSVKGRFTISRDNAKNTVYLQMNSLKPEATAVYYCAADDYYLAGDYWGQGTQVTVSS | low polyreactivity
QVQLVESGGGLVQAGGSLRLICAASGGTFGRNAMGWYRQAPGKERELVATITRRGGSTYYADSVKGRFTISRDNAKNTVYLQMNSLKPEDTAVYYCNALVTTTPRYDYWGQGTQVTVSS | high polyreactivity
QVQLVESGGGLVQAGGSLRLSCAASGSTFDYYAMGWYRQAPGKERELVAAISSSGSSTYYADSVKGLFTISRDNAKNTVYLQMNSLKPEDTAVYYCAKGTNYRDDYWGQGTQVTVSS | low polyreactivity
QVHLVESGGGLVQAGGSLRLSCAASGRTFDVYAMGWYRQATGKERQLVATISYRSARTYYADSVKGRFTISRDNAKNTVYLQMNSLKPEDTAVYYCAAYFETWHGFGYWGQGTQVTVSS | high polyreactivity
QVQLVESGGGLVQAGGSLRLSCAASGSTFVPNAMGWYRQSPGKERELVAAISRSAGSTYYADSVKGRFTISRDNAKNTVYLQMNSLKPEDTAVYYCAADSLTYIAYDYWGQGTQVTVSS | high polyreactivity

Specify measured polyreactivity (PSR sort gate) for QDQLVESRGGIVQAVRSLRLSSAASGSTYRNYAMGWYRQAPGKERELVAAISGSGGRTNYADSVKGRFTISRDNAKNTVYLQMNSLKQEDTAVYYCNARFPDWALSEISNSTTYGYWGQGTQVNVSS .
low polyreactivity

Specify measured polyreactivity (PSR sort gate) for QVQLVESGGGLVQAGGSLRLSCAASGSTFSNYAMGWYRQAPGKERELVASISNGGSTNYADSVKGRFTISRDNAKNTVYLQMNSLKPEDTAVYNCNAESKAKYDYWGQGTQVTVSS .
low polyreactivity

Specify measured polyreactivity (PSR sort gate) for QVQLVESGGGLVQAGGSLRLSCAASGRTLDKYTMGGYRQAPGKERELVASITSGGSTNYADSVKGRFTISRDNAKNTVYLQMNSLKPEDTAVYYCASGNWVLWNPGYDYWGQGTQVTVSS .
low polyreactivity

Specify measured polyreactivity (PSR sort gate) for QVQLQESGGGLVQAGGSLRQSYAASGYIFPSLAMGWYRQAPGKEREFVAAIGRGSTNNYADSVKGRFTISRDNAIYTAYQQMNSLKPEDTAVYYCGAAASPLTRHLYWGQGTQVTVSS .
low polyreactivity

Specify measured polyreactivity (PSR sort gate) for QVQLVESGGGLVQAGGSLRLSCAASGRTFYFYTMGWYRQAPGKERELVAAITSGGSTNYADSVKGRFTISRDNAKNTVYLQMNSLKPEDTAVYYCAAAYWRPGVRFFGPYDYWGQGTQVTVSS .
high polyreactivity

Specify measured polyreactivity (PSR sort gate) for QVQLVESGGGLVQAGGSLRLSCAASGNTINFYAMGWYRQAPGKEREMVAAISSGGSTNYADSVKGRFTISRDNAKNTVYLQMNSLKPEDSAVYYCAKDVWYLVYYHWKSNRVWQYDYWGQGTQVTVSS .
low polyreactivity

Specify measured polyreactivity (PSR sort gate) for QVQLVESGGGLVQAGGSLRLSCAASGSILGYYAMRWYRQAPGKDRELVAAISSGGSTNYADSVKGRFTISRDNAKNTVYLQMNSLKPEDTAVYYCAADRTYHGGFDYWGLGTQVTVSS .
low polyreactivity

Specify measured polyreactivity (PSR sort gate) for QVQLEESGGGLVQAGGRLRLSCAASGSILTAYAMGWYRQAPGKERELVAASNFSGDNTYYADSVKGRFTISRDNAKNTVYLQMNSLKPQDTALYYCNADGRYAYVWYDYWGQGTQVTVSS .
low polyreactivity

Specify measured polyreactivity (PSR sort gate) for QVQIVESGGGLVQAGGSLRLSCAASGRIFVYNAMGWYRQAPGKERELVAAISSTGSTNYADSVKGRFTISRDNAKNTVYLQMNSLKPEDTAVYYCAAVYYFYGFSGYYGQYDYWGQGSQVTVSS .
low polyreactivity

Specify measured polyreactivity (PSR sort gate) for QVQLVESGGGLVQAGGSLRLSSAASGSTFSDYAMGWYRQAPGKERELVAAISVSDGSTYYADSVKGRFTISRDNAKNTVYLQMNSLKPEDTAVYYCAAEYPYFVYSYFRFDYWGQGTQVTVSS .
low polyreactivity
